# Target desc: soluble guanylate cyclase (sGC) (Rattus norvegicus, UniProt P20595)
# Sequence (P20595 whole entry): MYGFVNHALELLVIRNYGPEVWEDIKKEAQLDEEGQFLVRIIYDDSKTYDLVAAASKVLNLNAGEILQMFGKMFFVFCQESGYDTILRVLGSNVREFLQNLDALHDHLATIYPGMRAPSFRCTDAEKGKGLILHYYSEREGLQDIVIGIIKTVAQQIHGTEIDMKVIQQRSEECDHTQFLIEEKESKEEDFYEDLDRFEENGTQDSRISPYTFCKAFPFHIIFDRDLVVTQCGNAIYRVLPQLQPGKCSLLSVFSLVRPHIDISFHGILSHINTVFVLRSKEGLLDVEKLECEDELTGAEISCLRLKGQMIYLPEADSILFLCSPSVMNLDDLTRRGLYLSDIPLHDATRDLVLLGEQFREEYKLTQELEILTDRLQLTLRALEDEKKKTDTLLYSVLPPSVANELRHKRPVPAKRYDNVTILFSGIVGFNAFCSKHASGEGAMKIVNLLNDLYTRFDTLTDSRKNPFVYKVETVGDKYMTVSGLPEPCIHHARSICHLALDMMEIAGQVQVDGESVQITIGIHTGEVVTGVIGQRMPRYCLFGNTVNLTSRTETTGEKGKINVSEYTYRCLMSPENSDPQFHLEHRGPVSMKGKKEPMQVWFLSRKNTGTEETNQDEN
# Sequence (P19686 whole entry partner): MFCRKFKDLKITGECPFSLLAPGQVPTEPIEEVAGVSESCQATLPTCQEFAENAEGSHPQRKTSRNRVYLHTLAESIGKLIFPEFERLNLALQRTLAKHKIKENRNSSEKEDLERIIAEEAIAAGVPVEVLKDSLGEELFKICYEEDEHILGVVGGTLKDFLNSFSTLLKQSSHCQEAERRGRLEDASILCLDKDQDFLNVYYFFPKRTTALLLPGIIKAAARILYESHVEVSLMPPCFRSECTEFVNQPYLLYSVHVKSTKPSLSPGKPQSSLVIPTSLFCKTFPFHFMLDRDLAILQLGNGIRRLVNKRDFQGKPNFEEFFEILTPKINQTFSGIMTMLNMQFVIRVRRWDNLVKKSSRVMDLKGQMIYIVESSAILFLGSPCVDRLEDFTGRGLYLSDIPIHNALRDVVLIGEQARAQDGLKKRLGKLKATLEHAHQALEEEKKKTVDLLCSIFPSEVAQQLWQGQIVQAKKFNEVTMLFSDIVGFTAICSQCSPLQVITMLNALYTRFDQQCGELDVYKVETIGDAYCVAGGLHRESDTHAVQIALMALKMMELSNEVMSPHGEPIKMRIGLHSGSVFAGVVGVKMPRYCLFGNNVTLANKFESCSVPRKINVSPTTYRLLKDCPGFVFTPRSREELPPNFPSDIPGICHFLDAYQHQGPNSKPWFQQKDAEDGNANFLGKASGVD
# Assay comment: Stimulation of sGC enzyme activity (PPi luminescence detection)
# Reported conditions: read-out: EC50 (concentration at 50% of maximum efficacy), activating action at the sGC enzyme in vitro
Readout type: pEC50
Conceptually, pEC50 converts a concentration in mol/L into minus its log10.

Looking up CC(C)(C)c1ccc(COc2cccc3c2CC(N(CCCCC(=O)O)Cc2ccc(C(=O)O)cc2)CC3)cc1 (racemic) , I see its pEC50 listed as 8.07

Looking up O=C(O)CCCCN(Cc1ccc(C(=O)O)cc1)C1CCc2cccc(OCc3ccc(CCc4ccccc4)cc3)c2C1 (single isomer, unassigned) [Example 5] , I see its pEC50 listed as 8.85

Looking up O=C(O)CCCCN(Cc1ccc(C(=O)O)cc1)C1CCc2cccc(OCc3ccc(CCc4ccccc4)cc3)c2C1 (stereo not shown) [Example 4] , I see its pEC50 listed as 8.12

Looking up CC(C)CCCCOc1cccc2c1CC(N(CCCCC(=O)O)Cc1ccc(C(=O)O)cc1)CC2 (stereo not shown) , I see its pEC50 listed as 6.21

Provenance of the data: patent US8673903B2
